Where these numbers come from: ChEMBL document CHEMBL1130282

- System: MCF7
- measurementProtocol: Growth inhibition of human mammary carcinoma (MCF-7) cell line
- Assay type: functional, cell-based
assayReadout: pIC50
Worth noting: pIC50 values are minus log10 of concentrations stated in mol/L.

Query: Missing value: pIC50, MCF7, entry CCC[C@H](NC(=O)OC(C)(C)C)[C@@H](O)C(=O)O[C@@H]1C(C)=C2[C@@H](O)C(=O)[C@@]3(C)C([C@H](OC(=O)c4ccccc4)[C@@]4(OC(=O)O[C@@H]14)C2(C)C)[C@]1(OC(C)=O)COC1C[C@@H]3O (some centres undefined) . Fill in?
Result: 8.38

Query: For C/C=C/C(=O)O[C@H]1C(=O)[C@@]2(C)C([C@H](OC(=O)c3ccccc3)[C@]34OC(=O)O[C@H]3[C@H](OC(=O)[C@H](O)[C@H](C=C(C)C)NC(=O)OC(C)(C)C)C(C)=C1C4(C)C)[C@]1(OC(C)=O)COC1C[C@@H]2O (some centres undefined) then?
Result: 9.40

Query: Same read-out for CCCCCC(=O)N[C@@H](c1ccccc1)[C@@H](O)C(=O)O[C@@H]1C(C)=C2[C@@H](O)C(=O)[C@@]3(C)C([C@H](OC(=O)c4ccccc4)[C@@]4(OC(=O)O[C@@H]14)C2(C)C)[C@]1(OC(C)=O)COC1C[C@@H]3O (some centres undefined) ?
Result: 7.89

Query: Okay, and CC(=O)O[C@@]12COC1C[C@H](O)[C@@]1(C)C(=O)[C@H](O)C3=C(C)[C@@H](OC(=O)[C@H](O)[C@H](CC(C)C)NC(=O)OC(C)(C)C)[C@@H]4OC(=O)O[C@]4([C@@H](OC(=O)c4ccccc4)C21)C3(C)C (some centres undefined) ?
Result: 8.57

----------
- Test system: MCF7
- measurementProtocol: Growth inhibition of human mammary carcinoma (MCF-7) cell line
- Type: functional, cell-based
Answer each item with its documented pIC50.
In textbook form, pIC50 equals minus log to base ten of the concentration in mol/L.

Query: Which pIC50 is listed for CCCCCC(=O)N[C@@H](C=C(C)C)[C@@H](O)C(=O)O[C@@H]1C(C)=C2[C@@H](OC(=O)C3CC3)C(=O)[C@@]3(C)C([C@H](OC(=O)c4ccccc4)[C@@]4(OC(=O)O[C@@H]14)C2(C)C)[C@]1(OC(C)=O)COC1C[C@@H]3O (some centres not stated) ?
Result: 8.49

Query: And the next one, CC(=O)O[C@@]12COC1C[C@H](O)[C@@]1(C)C(=O)[C@H](O)C3=C(C)[C@@H](OC(=O)[C@H](O)[C@@H](NC(=O)c4ccccc4)c4ccccc4)[C@@H]4OC(=O)O[C@]4([C@@H](OC(=O)c4ccccc4)C21)C3(C)C (some centres not stated) ?
Result: 7.96

----------
- Test system: HT-29
- measurementProtocol: Growth inhibition of human colon carcinoma (HT-29) cell line
- Format: functional, cell-based
assayReadout: pIC50
Scale: negative log10 of molar concentration, which is what pIC50 denotes.

Query: What measured pIC50 goes with C/C=C/C(=O)O[C@H]1C(=O)[C@@]2(C)C([C@H](OC(=O)c3ccccc3)[C@]34OC(=O)O[C@H]3[C@H](OC(=O)[C@H](O)[C@H](C=C(C)C)NC(=O)OC(C)(C)C)C(C)=C1C4(C)C)[C@]1(OC(C)=O)COC1C[C@@H]2O (some centres undefined) ?
Result: 8.82

Query: CC(=O)O[C@@]12COC1C[C@H](O)[C@@]1(C)C(=O)[C@H](O)C3=C(C)[C@@H](OC(=O)[C@H](O)[C@H](CC(C)C)NC(=O)OC(C)(C)C)[C@@H]4OC(=O)O[C@]4([C@@H](OC(=O)c4ccccc4)C21)C3(C)C (some centres undefined) , same question.
Result: 8.47

Query: What do you get for CC(=O)O[C@@]12COC1C[C@H](O)[C@@]1(C)C(=O)[C@H](O)C3=C(C)[C@@H](OC(=O)[C@H](O)[C@@H](NC(=O)OC(C)(C)C)c4ccco4)[C@@H]4OC(=O)O[C@]4([C@@H](OC(=O)c4ccccc4)C21)C3(C)C (some centres undefined) ?
Result: 9.22

Query: Repeat for the following compound: CC(=O)O[C@@]12COC1C[C@H](O)[C@@]1(C)C(=O)[C@H](O)C3=C(C)[C@@H](OC(=O)[C@H](O)[C@@H](NC(=O)c4ccccc4)c4ccccc4)[C@@H]4OC(=O)O[C@]4([C@@H](OC(=O)c4ccccc4)C21)C3(C)C (some centres undefined)
Result: 7.62

Query: Item: CCCCCC(=O)N[C@@H](C=C(C)C)[C@@H](O)C(=O)O[C@@H]1C(C)=C2[C@@H](OC(=O)N(C)C)C(=O)[C@@]3(C)C([C@H](OC(=O)c4ccccc4)[C@@]4(OC(=O)O[C@@H]14)C2(C)C)[C@]1(OC(C)=O)COC1C[C@@H]3O (some centres undefined)
Result: 8.29

Query: Now try CC(=O)O[C@@]12COC1C[C@H](O)[C@@]1(C)C(=O)[C@H](O)C3=C(C)[C@@H](OC(=O)[C@H](O)[C@@H](NC(=O)OC(C)(C)C)c4ccccc4)[C@@H]4OC(=O)O[C@]4([C@@H](OC(=O)c4ccccc4)C21)C3(C)C (some centres undefined) .
Result: 8.74

Query: Now this one: CCCCCC(=O)N[C@@H](c1ccccc1)[C@@H](O)C(=O)O[C@@H]1C(C)=C2[C@@H](O)C(=O)[C@@]3(C)C([C@H](OC(=O)c4ccccc4)[C@@]4(OC(=O)O[C@@H]14)C2(C)C)[C@]1(OC(C)=O)COC1C[C@@H]3O (some centres undefined)
Result: 6.80

Query: Same lookup for CCCCCC(=O)N[C@@H](C=C(C)C)[C@@H](O)C(=O)O[C@@H]1C(C)=C2[C@@H](OC(=O)C3CC3)C(=O)[C@@]3(C)C([C@H](OC(=O)c4ccccc4)[C@@]4(OC(=O)O[C@@H]14)C2(C)C)[C@]1(OC(C)=O)COC1C[C@@H]3O (some centres undefined) , please.
Result: 7.80

Query: Do the same for CC(=O)O[C@H]1C(=O)[C@@]2(C)C([C@H](OC(=O)c3ccccc3)[C@]34OC(=O)O[C@H]3[C@H](OC(=O)[C@H](O)[C@@H](NC(=O)OC(C)(C)C)c3ccco3)C(C)=C1C4(C)C)[C@]1(OC(C)=O)COC1C[C@@H]2O (some centres undefined) please
Result: 9.22

Query: Field entry: CCC[C@H](NC(=O)OC(C)(C)C)[C@@H](O)C(=O)O[C@@H]1C(C)=C2[C@@H](OC(C)=O)C(=O)[C@@]3(C)C([C@H](OC(=O)c4ccccc4)[C@@]4(OC(=O)O[C@@H]14)C2(C)C)[C@]1(OC(C)=O)COC1C[C@@H]3O (some centres undefined)
Result: 8.32

Query: Same for CC(=O)O[C@@]12COC1C[C@H](O)[C@@]1(C)C(=O)[C@H](OC(=O)N(C)C)C3=C(C)[C@@H](OC(=O)[C@H](O)[C@H](C=C(C)C)NC(=O)OC(C)(C)C)[C@@H]4OC(=O)O[C@]4([C@@H](OC(=O)c4ccccc4)C21)C3(C)C (some centres undefined)
Result: 8.92

Query: What do you have for C/C=C/C(=O)O[C@H]1C(=O)[C@@]2(C)C([C@H](OC(=O)c3ccccc3)[C@]34OC(=O)O[C@H]3[C@H](OC(=O)[C@H](O)[C@H](C=C(C)C)NC(=O)CCCCC)C(C)=C1C4(C)C)[C@]1(OC(C)=O)COC1C[C@@H]2O (some centres undefined) ?
Result: 7.55

Query: Consider next the compound CC(=O)O[C@@]12COC1C[C@H](O)[C@@]1(C)C(=O)[C@H](O)C3=C(C)[C@@H](OC(=O)[C@H](O)[C@H](CC(C)(C)C)NC(=O)OC(C)(C)C)[C@@H]4OC(=O)O[C@]4([C@@H](OC(=O)c4ccccc4)C21)C3(C)C (some centres undefined) in the same way.
Result: 7.28

Query: Proceed to CCC[C@H](NC(=O)OC(C)(C)C)[C@@H](O)C(=O)O[C@@H]1C(C)=C2[C@@H](O)C(=O)[C@@]3(C)C([C@H](OC(=O)c4ccccc4)[C@@]4(OC(=O)O[C@@H]14)C2(C)C)[C@]1(OC(C)=O)COC1C[C@@H]3O (some centres undefined)
Result: 8.42

----------
- System: MCF7
- measurementProtocol: Growth inhibition of human mammary carcinoma (MCF-7) cell line
- Type: functional, cell-based
assayReadout: IC50 (nM)
Numeric only. Scale: nM

Query: Which IC50 value is on record for CC(=O)O[C@H]1C(=O)[C@@]2(C)C([C@H](OC(=O)c3ccccc3)[C@]34OC(=O)O[C@H]3[C@H](OC(=O)[C@H](O)[C@@H](NC(=O)OC(C)(C)C)c3ccco3)C(C)=C1C4(C)C)[C@]1(OC(C)=O)COC1C[C@@H]2O (some centres undefined) ?
Result: 0.5

Query: Further, for CCC[C@H](NC(=O)OC(C)(C)C)[C@@H](O)C(=O)O[C@@H]1C(C)=C2[C@@H](OC(C)=O)C(=O)[C@@]3(C)C([C@H](OC(=O)c4ccccc4)[C@@]4(OC(=O)O[C@@H]14)C2(C)C)[C@]1(OC(C)=O)COC1C[C@@H]3O (some centres undefined) ?
Result: 4.6

Query: Continue with CC(=O)O[C@@]12COC1C[C@H](O)[C@@]1(C)C(=O)[C@H](O)C3=C(C)[C@@H](OC(=O)[C@H](O)[C@@H](NC(=O)OC(C)(C)C)c4ccccc4)[C@@H]4OC(=O)O[C@]4([C@@H](OC(=O)c4ccccc4)C21)C3(C)C (some centres undefined)
Result: 1.8

Query: Queued: CC(=O)O[C@@]12COC1C[C@H](O)[C@@]1(C)C(=O)[C@H](O)C3=C(C)[C@@H](OC(=O)[C@H](O)[C@@H](NC(=O)OC(C)(C)C)c4ccco4)[C@@H]4OC(=O)O[C@]4([C@@H](OC(=O)c4ccccc4)C21)C3(C)C (some centres undefined)
Result: 0.5
